Readings of phosphorylation enrichment for the listed sequences
test system: Fer (mouse); assay: phosphorylation enrichment, bacterial display (enrichment ratio); higher = better substrate or ligand; peptides without Tyr show the background;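 also: 11-residue human phosphosite peptides and single-mutation variants displayed on the E. coli surface, counted by deep sequencing, each peptide's frequency after selection divided by its frequency in the unselected input library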;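 also: frequency after pTyr selection over input frequency; kinase dosed for 20-30% of maximal phosphorylation in three min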

{"seq.text": "VGGRIYIDDGL [PKLR_Y218]", "phosphorylation enrichment": 0.681}
{"seq.text": "RAEAQYLLVSN [LRIG1_Y1054]", "phosphorylation enrichment": 0.43}
{"seq.text": "SGPRHYTIAAL [TTR_Y125_R124H]", "phosphorylation enrichment": 0.438}
{"seq.text": "AMCVRYDGVEV [ADAMTSL2_Y594]", "phosphorylation enrichment": 0.791}
{"seq.text": "EDSEYYKAFEE [CASQ2_Y179]", "phosphorylation enrichment": 0.487}
{"seq.text": "PTFKHYANSTQ [SLC12A3_Y70_E68K_YF]", "phosphorylation enrichment": 0.509}
{"seq.text": "HLDRSYSYSYS [PEAR1_Y890_R885H]", "phosphorylation enrichment": 0.401}

The reported numbers originate from the supplement of paper PMC10065799.
